- Test system: NCI-H460
- assayOverview: Percent growth of NCI cell line, lung-nsc: NCI-H460 exposed for 48 hr at 10e-6 concentration
- Assay type: functional, Homo sapiens
propertyName: Growth

- structureSmilesString: "CN(C)CCn1c(=O)c2ccc3c4c(nn3CCN(C)C)c3cc([N+](=O)[O-])ccc3n(c1=O)c24"
  measuredOn: "NCI-H460"
  propertyName: "Growth"
  observedMeasurement: "-19%"

stdin: Quickly give me recorded Growth for `COc1ccc2c(c1)c1nn(CCN3CCCCC3)c3ccc4c(=O)n(CCN(C)C)c(=O)n2c4c13`
stdout: -36%

stdin: Quickly give me recorded Growth for `CN(C)CCn1c(=O)c2ccc3c4c(nn3CCN(C)C)c3cc(N)ccc3n(c1=O)c24`
stdout: -28%

stdin: Quickly give me recorded Growth for `COc1ccc2c(c1)c1nn(CCN(C)C)c3ccc4c(=O)n(CCN(C)C)c(=O)n2c4c13`
stdout: -60%

stdin: Quickly give me recorded Growth for `CN(C)CCn1c(=O)c2ccc3c4c(nn3CCN(C)C)c3cc(O)ccc3n(c1=O)c24`
stdout: -23%

stdin: Quickly give me recorded Growth for `CN(C)CCn1c(=O)c2ccc3c4c(nn3CCN(C)C)c3ccccc3n(c1=O)c24`
stdout: -44%

* * *

- System: LOX IMVI
- assayOverview: Percent growth of NCI cell line, melanoma: LOX IMVI exposed for 48 hr at 10e-6 concentration
- Assay type: functional, Homo sapiens
propertyName: Growth

Some molecules with known Growth results, for comparison:
- structureSmilesString: "CN(C)CCn1c(=O)c2ccc3c4c(nn3CCN(C)C)c3cc([N+](=O)[O-])ccc3n(c1=O)c24"
  measuredOn: "LOX IMVI"
  Growth: "5%"
- structureSmilesString: "COc1ccc2c(c1)c1nn(CCN(C)C)c3ccc4c(=O)n(CCN(C)C)c(=O)n2c4c13"
  measuredOn: "LOX IMVI"
  Growth: "-19%"
- structureSmilesString: "CN(C)CCn1c(=O)c2ccc3c4c(nn3CCN(C)C)c3cc(O)ccc3n(c1=O)c24"
  measuredOn: "LOX IMVI"
  Growth: "-48%"

Now look at this one.
stdin: Quickly give me recorded Growth for `CN(C)CCn1c(=O)c2ccc3c4c(nn3CCN(C)C)c3ccccc3n(c1=O)c24`
stdout: -32%

* * *

- assayOverview: Percent growth of NCI cell line, leucemia K562 exposed for 48 hr at 10e-6 concentration
- Type: functional, Homo sapiens
Growth listing for selected compounds.
Supply the numeric figure in %, leaving out any unit text.

- structureSmilesString: "CN(C)CCn1c(=O)c2ccc3c4c(nn3CCN(C)C)c3ccccc3n(c1=O)c24"
  Growth, %: -27
- structureSmilesString: "COc1ccc2c(c1)c1nn(CCN3CCCCC3)c3ccc4c(=O)n(CCN(C)C)c(=O)n2c4c13"
  Growth, %: 12
- structureSmilesString: "CN(C)CCn1c(=O)c2ccc3c4c(nn3CCN(C)C)c3cc(O)ccc3n(c1=O)c24"
  Growth, %: 7
- structureSmilesString: "COc1ccc2c(c1)c1nn(CCN(C)C)c3ccc4c(=O)n(CCN(C)C)c(=O)n2c4c13"
  Growth, %: -14
- structureSmilesString: "CN(C)CCn1c(=O)c2ccc3c4c(nn3CCN(C)C)c3cc([N+](=O)[O-])ccc3n(c1=O)c24"
  Growth, %: 6

Now look at this one.
stdin: Quickly give me recorded Growth for `CN(C)CCn1c(=O)c2ccc3c4c(nn3CCN(C)C)c3cc(N)ccc3n(c1=O)c24`
stdout: 7

* * *

- Tested on: HCT-15
- assayOverview: Percent growth of NCI cell line, colon: HCT-15 exposed for 48 hr at 10e-4 concentration
- Type: functional, Homo sapiens
propertyName: Growth (%)
Supply the numeric figure in %, leaving out any unit text.

- structureSmilesString: "CN(C)CCn1c(=O)c2ccc3c4c(nn3CCN(C)C)c3cc(O)ccc3n(c1=O)c24"
  unitSymbol: "%"
  Growth: -68
- structureSmilesString: "CN(C)CCn1c(=O)c2ccc3c4c(nn3CCN(C)C)c3cc(N)ccc3n(c1=O)c24"
  unitSymbol: "%"
  Growth: -75
- structureSmilesString: "CN(C)CCn1c(=O)c2ccc3c4c(nn3CCN(C)C)c3ccccc3n(c1=O)c24"
  unitSymbol: "%"
  Growth: -85

stdin: Quickly give me recorded Growth for `CN(C)CCn1c(=O)c2ccc3c4c(nn3CCN(C)C)c3cc([N+](=O)[O-])ccc3n(c1=O)c24`
stdout: -89

stdin: Quickly give me recorded Growth for `COc1ccc2c(c1)c1nn(CCN3CCCCC3)c3ccc4c(=O)n(CCN(C)C)c(=O)n2c4c13`
stdout: -61

stdin: Quickly give me recorded Growth for `COc1ccc2c(c1)c1nn(CCN(C)C)c3ccc4c(=O)n(CCN(C)C)c(=O)n2c4c13`
stdout: -80

* * *

- Tested on: SNB-19
- assayOverview: Percent growth of NCI cell line, CNS: SNB-19 exposed for 48 hr at 10e-8 concentration
- Format: functional, Homo sapiens
propertyName: Growth (%)
Supply the numeric figure in %, leaving out any unit text.

Some compounds with known Growth results, for comparison:
- structureSmilesString: "COc1ccc2c(c1)c1nn(CCN3CCCCC3)c3ccc4c(=O)n(CCN(C)C)c(=O)n2c4c13"
  measuredOn: "SNB-19"
  Growth, %: 55
- structureSmilesString: "COc1ccc2c(c1)c1nn(CCN(C)C)c3ccc4c(=O)n(CCN(C)C)c(=O)n2c4c13"
  measuredOn: "SNB-19"
  Growth, %: 62
- structureSmilesString: "CN(C)CCn1c(=O)c2ccc3c4c(nn3CCN(C)C)c3cc([N+](=O)[O-])ccc3n(c1=O)c24"
  measuredOn: "SNB-19"
  Growth, %: 75
- structureSmilesString: "CN(C)CCn1c(=O)c2ccc3c4c(nn3CCN(C)C)c3cc(N)ccc3n(c1=O)c24"
  measuredOn: "SNB-19"
  Growth, %: 43
- structureSmilesString: "CN(C)CCn1c(=O)c2ccc3c4c(nn3CCN(C)C)c3ccccc3n(c1=O)c24"
  measuredOn: "SNB-19"
  Growth, %: 66

Now look at this one.
stdin: Using SNB-19 as the test system, report measured Growth of `CN(C)CCn1c(=O)c2ccc3c4c(nn3CCN(C)C)c3cc(O)ccc3n(c1=O)c24` .
stdout: 65

* * *

Growth listing for selected molecules.
- Test system: MCF7
- assayOverview: Percent growth of NCI cell line, breast: MCF-7 exposed for 48 hr at 10e-4 concentration
- Type: functional, Homo sapiens
Supply the numeric figure in %, leaving out any unit text.

- structureSmilesString: "COc1ccc2c(c1)c1nn(CCN(C)C)c3ccc4c(=O)n(CCN(C)C)c(=O)n2c4c13"
  unitSymbol: "%"
  Growth: -89
- structureSmilesString: "CN(C)CCn1c(=O)c2ccc3c4c(nn3CCN(C)C)c3cc(O)ccc3n(c1=O)c24"
  unitSymbol: "%"
  Growth: -64
- structureSmilesString: "CN(C)CCn1c(=O)c2ccc3c4c(nn3CCN(C)C)c3cc(N)ccc3n(c1=O)c24"
  unitSymbol: "%"
  Growth: -65
- structureSmilesString: "COc1ccc2c(c1)c1nn(CCN3CCCCC3)c3ccc4c(=O)n(CCN(C)C)c(=O)n2c4c13"
  unitSymbol: "%"
  Growth: -12
- structureSmilesString: "CN(C)CCn1c(=O)c2ccc3c4c(nn3CCN(C)C)c3ccccc3n(c1=O)c24"
  unitSymbol: "%"
  Growth: -95

stdin: Quickly give me recorded Growth for `CN(C)CCn1c(=O)c2ccc3c4c(nn3CCN(C)C)c3cc([N+](=O)[O-])ccc3n(c1=O)c24`
stdout: -93

* * *

Growth listing for selected molecules.
- assayOverview: Percent growth of NCI cell line, leucemia K562 exposed for 48 hr at 10e-8 concentration
- Assay type: functional, Homo sapiens
Supply the numeric figure in %, leaving out any unit text.

Some molecules with known Growth results, for comparison:
- structureSmilesString: "COc1ccc2c(c1)c1nn(CCN(C)C)c3ccc4c(=O)n(CCN(C)C)c(=O)n2c4c13"
  observedMeasurement: 47
- structureSmilesString: "CN(C)CCn1c(=O)c2ccc3c4c(nn3CCN(C)C)c3cc(N)ccc3n(c1=O)c24"
  observedMeasurement: 45
- structureSmilesString: "COc1ccc2c(c1)c1nn(CCN3CCCCC3)c3ccc4c(=O)n(CCN(C)C)c(=O)n2c4c13"
  observedMeasurement: 39
- structureSmilesString: "CN(C)CCn1c(=O)c2ccc3c4c(nn3CCN(C)C)c3cc(O)ccc3n(c1=O)c24"
  observedMeasurement: 84

stdin: Quickly give me recorded Growth for `CN(C)CCn1c(=O)c2ccc3c4c(nn3CCN(C)C)c3ccccc3n(c1=O)c24`
stdout: 61

stdin: Quickly give me recorded Growth for `CN(C)CCn1c(=O)c2ccc3c4c(nn3CCN(C)C)c3cc([N+](=O)[O-])ccc3n(c1=O)c24`
stdout: 82

Cited source: ChEMBL document CHEMBL1135709
